assay: NCI Yeast Anticancer Drug Screen. Data for the bub3 strain (AID 167); details: S. cerevisiae bub3 mutant strain, at 50.0 µM, stronger effect = higher value
The panel holds about 79,000 compounds, 15% with a hit somewhere; the sample as a whole holds those more often.
outcome.measure: growth inhibition (%)
Answers are plain numbers, in %.

Entry Cc1ccc(C2=NO[C@@H]3C(=O)N(c4ccc(Cc5ccc(N6C(=O)[C@H]7C(c8ccc(C)cc8)=NO[C@H]7C6=O)cc5)cc4)C(=O)[C@H]23)cc1 ; growth inhibition = 31.1

For each of the molecules below, note its growth inhibition.
1. C/C(=N\NC(=S)N1CCN(c2ncccn2)CC1)c1ccccn1
2. CCC(O)C(CC)CC (stereo unspecified)

### Response
1. 9.35
2. -10.2

For each of the molecules below, note its growth inhibition.
1. C[C@H](NC(=O)n1c2ccccc2c2ccccc21)C(=O)O
2. O.O.[Cl][Pt+2][Cl].[NH-]CC1(C[NH-])CCCCC1
3. COC1CC(OC2C(C)OC(OC3C(C)OC(OC4C(C)OC(O[C@H]5CC[C@@]6(C)C(=CC[C@]7(O)[C@@H]6C[C@@H](OC(=O)/C=C/c6ccccc6)[C@@]6(C)[C@]7(O)CC[C@@]6(O)C(C)=O)C5)CC4OC)CC3OC)CC2OC)OC(C)C1O (stereo partly specified)
4. CC1CCOCO1 (stereo unspecified)
5. CCOc1ccc(N=C(NC(=O)c2ccccc2)SC)cc1
6. CCOC(=O)N1CCN(c2ccc3ccc(N)nc3n2)CC1
7. CN1CC(=O)N(C(=O)c2ccccc2)C1=N

### Response
1: -1.05; 2: 8.75; 3: 7.15; 4: 13.1; 5: 10.1; 6: 18.9; 7: -2.15

For each of the molecules below, note its growth inhibition.
1. O=C(O)CCc1nc2c(n1-c1ccccc1)C(=O)c1ccccc1C2=O
2. Cc1cccc(Cl)c1NC(=O)CN(C)C
3. CCCC(SCCO)C(CC)CSCCO (stereo unspecified)
4. Cc1nc(C(N)=O)c(=O)[nH]c1C
5. CC(C)C(=O)C(C)(C)CCc1ccccn1

### Response
1: 37.6; 2: 19.6; 3: 13.1; 4: 2.65; 5: -12.2

For each of the molecules below, note its growth inhibition.
1. CCOC(=O)COc1cc2c(cc1C(C)c1ccc(OCc3ccccc3)c(OC)c1)OCO2 (stereo unspecified)
2. O=C(O)c1ccc(C(=O)C2CC(C(=O)O)CCC2S(=O)(=O)O)cc1 (stereo unspecified)
3. COc1cc(-c2cc(=O)c3c(O)c(OC)c(OC)c(OC)c3o2)ccc1O
4. COc1ccc(C(=O)OCc2ccccc2CN2CCOCC2)cc1

### Response
1. -7.4
2. -0.4
3. 13.1
4. -4.9
